Tested on: Jurkat
MEASUREMENT DESCRIPTION: cell count relative to DMSO control (fraction of control); higher = more cells (less growth inhibition)
DETAILS: 48 h
Where a name gives a salt, the structure may show the parent alone.
Kind request: treat 0.9 as inclusive, so cell count at 0.9 or higher is Satisfied, anything lower is Not satisfied.

MOLECULE: Nc1nc(=O)c2c([nH]1)NCC(CNc1ccc(C(=O)N[C@@H](CCC(=O)O)C(=O)O)cc1)N2C=O (stereo partly specified) [Leucovorin Calcium Pentahydrate] (concentration: 25 µM)
DISCRETE LABEL: Satisfied
--
MOLECULE: CC/C(=C(\c1ccccc1)c1ccc(OCCN(C)C)cc1)c1ccccc1 [Tamoxifen Citrate] (concentration: 25 µM)
DISCRETE LABEL: Not satisfied
--
MOLECULE: CN(C)CCCN1c2ccccc2CCc2ccccc21 [Imipramine·HCl] (concentration: 25 µM)
DISCRETE LABEL: Not satisfied
